Measured inhibition of growth at 10 µM values are reported for all entries that follow.
# Test system: MDA-MB-468
# method: Growth inhibition of human MDA-MB-468 cells at 10 uM incubated for 48 hrs by sulforhodamine B assay relative to control
# Assay type: functional
# cond: MDA-MB-468, 48 h, read-out: GI
Numbers only here, please. The scale is %.

Previously resolved entries follow.
sample.smiles | measured.on | unit.string | inhibition of growth at 10 µM
NS(=O)(=O)c1ccc(N/N=C2\C(=O)N(Cc3ccccc3)c3ccc(Cl)cc32)cc1 | MDA-MB-468 | % | 17
NS(=O)(=O)c1ccc(N/N=C2\C(=O)N(Cc3ccccc3)c3ccccc32)cc1 | MDA-MB-468 | % | 27
CCCN1C(=O)/C(=N\Nc2ccc(S(N)(=O)=O)cc2)c2cc(Br)ccc21 | MDA-MB-468 | % | 14

Req: Tell me its inhibition of growth at 10 µM given `NS(=O)(=O)c1ccc(N/N=C2\C(=O)N(Cc3ccccc3)c3ccc(Br)cc32)cc1` as the entry.
Resp: 13

Recorded values, source ChEMBL document CHEMBL4311999.
